// data source = the supplement of paper PMC11451515

Measured AUC of viability dose-response curve accompanies every entry in the list below.
Test system: SEM cells
Method summary: AUC of viability dose-response curve (% viability x log10 dose units); higher = less sensitive
Measurement context: HPLM + 10% dialyzed FBS; 48 h

Would you please look over these solved cases?
CNCCCC12CCC(c3ccccc31)c1ccccc12	453
COC\1=C(/OC)C(=O)\C(=C(C)/C1=O)CCCCCCCCCCO	460
CCc1ccc(CCOc2ccc(CC3SC(=O)NC3=O)cc2)nc1 (stereo not given)	444
O=C(C=CC#Cc1cccc(N[S+](=O)([O-])c2ccccc2)c1)NO	354
Cc1c(C)n(Cc2ccc(-c3ccccc3C(=O)O)cc2)c2ccc(C(=O)N[C@@H](C)c3ccc([N+](=O)[O-])cc3)cc12	460

input: AUC of viability dose-response curve for "CC(=O)O[C@@]1(CC[C@H]2[C@@H]3\C=C(Cl)/C4=C/C(=O)[C@@H]5C[C@@H]5[C@]4(C)[C@H]3CC[C@]12C)C(C)=O" ?
output: 464

input: State the recorded AUC of viability dose-response curve for this entry: CNC(=O)c1ccc2cc(C3(O)CCn4cncc43)ccc2c1 (stereo not given)
output: 441

input: # lookup: AUC of viability dose-response curve of "CCCc1cc(C(N)=S)ccn1"
output: 446

input: Name the reported AUC of viability dose-response curve value associated with the compound "CN[C@@H]1[C@@H](O)[C@@H](O[C@@H]2[C@@H](O)[C@H](O[C@H]3O[C@H](CN)[C@@H](O)[C@H](O)[C@H]3O)[C@@H](N)C[C@H]2NC(=O)[C@@H](O)CN)OC[C@]1(C)O"
output: 453

input: Suppose we examine the compound "Clc1ccc(-c2nc3sccn3c2/C=N/OCc2ccc(Cl)c(Cl)c2)cc1" ; what AUC of viability dose-response curve value has been reported?
output: 453

input: Query: AUC of viability dose-response curve; subject: "C=C1/C(=C\C=C2/CCC[C@]3(C)[C@@H]([C@H](C)CCCC(C)(C)O)CC[C@@H]23)C[C@@H](O)C[C@@H]1O"
output: 459

input: Could you tell me which AUC of viability dose-response curve is on file for "CC(C)N[C@@H]1CCn2c(=O)[nH]c3cccc(c32)[C@H]1O" ?
output: 463

input: Which AUC of viability dose-response curve value belongs to CCC[S+]([O-])c1ccc2[nH]c(NC(=O)OC)nc2c1 (stereo not given) ?
output: 409

input: Please give the measured AUC of viability dose-response curve for this compound: "C[C@H](CCC(=O)O)[C@H]1CC[C@H]2[C@@H]3[C@@H](O)C[C@@H]4C[C@H](O)CC[C@]4(C)[C@H]3CC[C@]12C"
output: 441

input: Dear colleague, I am looking for the recorded AUC of viability dose-response curve of the following compound: "CC(C)OC(=O)/C1=C/N(CC(C)(C)C2=C1[NH]C3=CC=CC=C23)C(=O)C4=CC=C(F)C(=C4)F"
output: 342

---

Tested on: SEM cells
Method summary: cell viability relative to DMSO control; higher = less cytotoxic
Measurement context: RPMI 5 mM glucose + 10% FBS; 48 h; 46.1 µM
Field: class. Source value: cell viability. Ranges: range 1 = under 30%, range 2 = from 30% up to 90%, range 3 = 90% and over

Past entries and their recorded results:
C[C@]12CC[C@@H]3c4ccc(O)cc4CC[C@H]3[C@@H]1[C@@H](O)[C@@H](O)[C@@H]2O	range 2
CC(C)c1noc(N2CCC(COc3ccc(-c4ccc([S+](C)(=O)[O-])cc4)nc3)CC2)n1	range 3
CN(C)C1CCN(C(=O)c2ccc(NC(=O)Nc3nc(N4CCOCC4)nc(N4CCOCC4)n3)cc2)CC1	range 1

Then this molecule:
input: Dear colleague, I would appreciate it if you could identify the bin for "C[S+](=O)([O-])Nc1ccc([N+](=O)[O-])cc1Oc1ccccc1" and reply at your convenience.
output: range 1

---

Test system: P12-Ichikawa
Method summary: cell viability relative to DMSO control; higher = less cytotoxic
Measurement context: RPMI 5 mM glucose + 10% FBS; 48 h; 46.1 µM
Reported cell viability values for a set of molecules
Entry rule: numbers only, all in %.

Below, each entry is followed by its recorded cell viability result.
O=C(Nc1cc(Cl)cc2c1[nH]c1cnccc12)c1cccnc1	109
FC1=C(C=C(C\C2=N\NC(=O)C3=C2C=CC=C3)C=C1)C(=O)N4CCN(CC4)C(=O)C5CC5	38.9
CC(C)c1noc(N2CCC(COc3ccc(-c4ccc([S+](C)(=O)[O-])cc4)nc3)CC2)n1	101

Here is another molecule to look at.
input: Could you share which cell viability value was measured for "CCC1(c2ccccc2)C(=O)NCNC1=O" ?
output: 131

---

System: NOMO1
Method summary: cell viability relative to DMSO control; higher = less cytotoxic
Measurement context: RPMI 5 mM glucose + 10% FBS; 48 h; 0.000781 µM
Readout type: cell viability (%)
The figure you give is taken to be in %; do not add the unit.

Please review the entries below; each comes with its answer.
CCc1ccc(CCOc2ccc(CC3SC(=O)NC3=O)cc2)nc1 (stereo unspecified)	112
OC[C@H]1O[C@H]([C@H](O)[C@@H]1O)N2\C=C/C(=O)NC2=O	89.4
CC(C)c1noc(N2CCC(COc3ccc(-c4ccc([S+](C)(=O)[O-])cc4)nc3)CC2)n1	114

input: Field request: cell viability | item: CCC[S+]([O-])c1ccc2[nH]c(NC(=O)OC)nc2c1 (stereo unspecified)
output: 88.2

input: # cell viability lookup, item ClC1=CC=C(C=C1)C(C#N)C2=C(Cl)C=C(C=C2Cl)N3\N=C/C(=O)NC3=O (stereo unspecified)
output: 100

input: What does the data say about its cell viability? Entry: "CCOC(=O)[C@@H](N)Cc1ccc(-c2cc(O[C@H](c3ccc(Cl)cc3-n3ccc(C)n3)C(F)(F)F)nc(N)n2)cc1.O=C(O)CNC(=O)c1ccccc1"
output: 108

---

Listing of recorded cell viability by entry.
System: SEM cells
Method summary: cell viability relative to DMSO control; higher = less cytotoxic
Measurement context: RPMI 5 mM glucose + 10% FBS; 48 h; 15.4 µM
Output should be the measured figure followed by the unit it is expressed in.

CC(C)(C#N)c1cc(Cn2cncn2)cc(C(C)(C)C#N)c1	125%
COCCOc1ccc2c(c1)ncn2-c1ccc2cccc(N3CCC(N)CC3)c2n1	12.3%

Here's the next entry for you.
input: Recorded cell viability of "c1ccc2[nH]c(-c3cscn3)nc2c1" , please.
output: 23.7%

---

System: NOMO1
Method summary: cell viability relative to DMSO control; higher = less cytotoxic
Measurement context: RPMI 5 mM glucose + 10% FBS; 48 h; 0.000781 µM
Readout type: cell viability (%)
The response must be a number in % with no trailing unit.

# count of solved cases: 5
CC1CNc2c(cccc2[S+](=O)([O-])N[C@@H](CCCNC(=N)N)C(=O)N2CC[C@@H](C)C[C@@H]2C(=O)O)C1 (stereo partly specified)	98.3
CNC(=O)c1ccc(N2C(=S)N(c3cnc(C#N)c(C(F)(F)F)c3)C(=O)C23CCC3)cc1F	84.9
NNCCc1ccccc1	117
O=c1[nH]c(=O)n([C@H]2C[C@H](O)[C@@H](CO)O2)cc1/C=C/Br	93.9
Cc1coc2c1C(=O)C(=O)c1c-2ccc2c(C)cccc12	126

Let's switch to this compound now.
input: Returns the measured cell viability for the input compound. Input: "CCOC(=O)c1ccc(OC(=O)CCCCCNC(=N)N)cc1"
output: 117

---

System: NOMO1
Method summary: AUC of viability dose-response curve (% viability x log10 dose units); higher = less sensitive
Measurement context: RPMI 5 mM glucose + 10% FBS; 48 h
Overview of reported AUC of viability dose-response curve across a group of compounds:
Answer as a number with no unit attached.

O=C(O)Cn1nnc(-c2cc(N3CCC(Oc4cc(F)ccc4Br)CC3)no2)n1	340
CCOC(=O)N1CCN(/[N+]([O-])=N/Oc2ccc([N+](=O)[O-])cc2C#N)CC1	383
CN(C)C(=N)NC(=N)N	446
C[C@H](NC(=O)c1sccc1OCc1ccc(Cl)cc1)c1ccccc1	388
Cc1onc(-c2ccccc2Cl)c1C(=O)N[C@@H]1C(=O)N2[C@@H]1SC(C)(C)[C@@H]2C(=O)[O-]	437
Clc1ccc(-c2nc3sccn3c2/C=N/OCc2ccc(Cl)c(Cl)c2)cc1	451
COc1ccc(-c2ccc3c(N4CCOCC4)nc(N4C[C@@H](C)O[C@@H](C)C4)nc3n2)cc1CO	372
C[C@H]1C[C@@H]2[C@H](CC[C@@]3(C)[C@H]2CC[C@]3(OC(C)=O)C(C)=O)[C@@]\4(C)CCC(=O)\C=C14	472

Consider the additional compound presented here.
input: Dear colleague, I am looking for the recorded AUC of viability dose-response curve of the following compound: OC(c1cc(C(F)(F)F)nc2c(C(F)(F)F)cccc12)C1CCCCN1 (centres undefined)
output: 453
